The entries below are paired with their reported self-cleavage kobs at 640 uM GlcN6P.
B1: glmS ribozyme (parent)
chain: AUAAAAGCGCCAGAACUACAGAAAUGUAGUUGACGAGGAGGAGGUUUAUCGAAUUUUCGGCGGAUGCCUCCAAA

variants of: B1; assay: self-cleavage kobs at 640 uM GlcN6P; higher = faster cleavage; RNA array; conditions: with glucosamine-6-phosphate
Fewer inactive variants are shown than the library holds.
measurement_type: self-cleavage kobs at 640 uM GlcN6P

>  <alteration>
G41A U57C C67A

>  <val>
< 1e-05 s⁻¹

$$$$
>  <alteration>
G7A A15G U30C A48G U57A

>  <val>
< 1e-05 s⁻¹

$$$$
>  <alteration>
G7U C61G C67A

>  <val>
0.000105 s⁻¹

$$$$
>  <alteration>
A12G A15C G40U

>  <val>
< 1e-05 s⁻¹

$$$$
>  <alteration>
U30G G40U

>  <val>
0.000212 s⁻¹

$$$$
>  <alteration>
A15U A36G G41U U47A

>  <val>
< 1e-05 s⁻¹

$$$$
>  <alteration>
A12C G32C U57C C58U

>  <val>
< 1e-05 s⁻¹

$$$$
>  <alteration>
G32U A52U C58U C61U

>  <val>
< 1e-05 s⁻¹

$$$$
>  <alteration>
U56G U57A

>  <val>
6.17e-05 s⁻¹

$$$$
>  <alteration>
G51U U55C

>  <val>
< 1e-05 s⁻¹

$$$$
>  <alteration>
G35C C71U

>  <val>
< 1e-05 s⁻¹

$$$$
>  <alteration>
A15G U31C A33C A52U U54C

>  <val>
< 1e-05 s⁻¹

$$$$
>  <alteration>
C8G G29U A33C C68A

>  <val>
< 1e-05 s⁻¹

$$$$
>  <alteration>
G9C A36C

>  <val>
< 1e-05 s⁻¹

$$$$
>  <alteration>
A42G G62C

>  <val>
< 1e-05 s⁻¹

$$$$
>  <alteration>
C10U G62U

>  <val>
< 1e-05 s⁻¹

$$$$
>  <alteration>
A5U

>  <val>
0.00869 s⁻¹

$$$$
>  <alteration>
U30A U56C G60U A64C

>  <val>
< 1e-05 s⁻¹

$$$$
>  <alteration>
G35U G51A G63A C67A

>  <val>
< 1e-05 s⁻¹

$$$$
>  <alteration>
U46A U65A

>  <val>
0.000776 s⁻¹

$$$$
>  <alteration>
U30C G66C

>  <val>
< 1e-05 s⁻¹

$$$$
>  <alteration>
A39C G43A G66A

>  <val>
< 1e-05 s⁻¹

$$$$
>  <alteration>
G9C G29C A52U C70U

>  <val>
< 1e-05 s⁻¹

$$$$
>  <alteration>
C10A U30C

>  <val>
< 1e-05 s⁻¹

$$$$
>  <alteration>
A15G U45C U57C

>  <val>
< 1e-05 s⁻¹

$$$$
>  <alteration>
C58G G59U C68G

>  <val>
4.54e-05 s⁻¹

$$$$
>  <alteration>
C16G G51A A64U

>  <val>
< 1e-05 s⁻¹

$$$$
>  <alteration>
A6U C16A C34A G38C

>  <val>
< 1e-05 s⁻¹

$$$$
>  <alteration>
A33C G51A G60C

>  <val>
< 1e-05 s⁻¹

$$$$
>  <alteration>
U54C A64C

>  <val>
3.19e-05 s⁻¹

$$$$
>  <alteration>
G43C U69G

>  <val>
< 1e-05 s⁻¹

$$$$
>  <alteration>
U31C A39C G51C

>  <val>
< 1e-05 s⁻¹

$$$$
>  <alteration>
U54A U69A

>  <val>
0.000109 s⁻¹

$$$$
>  <alteration>
A6C C8U C34A

>  <val>
< 1e-05 s⁻¹

$$$$
>  <alteration>
A36U U46C C50U C58U G59C C67A

>  <val>
< 1e-05 s⁻¹

$$$$
>  <alteration>
C16G A48U C50G C70A

>  <val>
5.34e-05 s⁻¹

$$$$
>  <alteration>
A14G A48U

>  <val>
0.000335 s⁻¹

$$$$
>  <alteration>
A15U A42C C67U C70G

>  <val>
< 1e-05 s⁻¹

$$$$
>  <alteration>
A42C U69C

>  <val>
0.000126 s⁻¹

$$$$
>  <alteration>
C8A G29C A36C G63A

>  <val>
< 1e-05 s⁻¹

$$$$
>  <alteration>
C58G C67G C70G

>  <val>
6.3e-05 s⁻¹

$$$$
>  <alteration>
U49C C71A

>  <val>
< 1e-05 s⁻¹

$$$$
>  <alteration>
A36G U69G

>  <val>
4.85e-05 s⁻¹

$$$$
>  <alteration>
G35A U55C C70A

>  <val>
< 1e-05 s⁻¹

$$$$
>  <alteration>
U56A U65A

>  <val>
0.000368 s⁻¹

$$$$
>  <alteration>
C11U A15U G38A A53U

>  <val>
< 1e-05 s⁻¹

$$$$
>  <alteration>
G44U A52C

>  <val>
< 1e-05 s⁻¹

$$$$
>  <alteration>
A36U U45A C50G

>  <val>
< 1e-05 s⁻¹

$$$$
>  <alteration>
G40U G41A

>  <val>
3.9e-05 s⁻¹

$$$$
>  <alteration>
G41A

>  <val>
0.000923 s⁻¹

$$$$
>  <alteration>
G9U G13C G43A

>  <val>
< 1e-05 s⁻¹

$$$$
>  <alteration>
U46C C70G

>  <val>
0.000178 s⁻¹

$$$$
>  <alteration>
C11A G38U A39U G60A

>  <val>
< 1e-05 s⁻¹

$$$$
>  <alteration>
A6C A14G A36G A52C

>  <val>
< 1e-05 s⁻¹

$$$$
>  <alteration>
A15U G38U G40C A52U C58U C61G

>  <val>
< 1e-05 s⁻¹

$$$$
>  <alteration>
G9U C67A

>  <val>
< 1e-05 s⁻¹

$$$$
>  <alteration>
A14G C16U U45G C67U

>  <val>
0.00248 s⁻¹

$$$$
>  <alteration>
U47G C71G

>  <val>
0.000146 s⁻¹

$$$$
>  <alteration>
G7A A14U C58A C68G

>  <val>
0.00047 s⁻¹

$$$$
>  <alteration>
U30C U45G U56G C68G

>  <val>
< 1e-05 s⁻¹

$$$$
>  <alteration>
A6G C11U C16A A64G

>  <val>
< 1e-05 s⁻¹

$$$$
>  <alteration>
G13A U47G

>  <val>
2.44e-05 s⁻¹

$$$$
>  <alteration>
U31A A53U

>  <val>
0.00278 s⁻¹

$$$$
>  <alteration>
A14C A64U

>  <val>
< 1e-05 s⁻¹

$$$$
>  <alteration>
A53G U69A

>  <val>
0.000407 s⁻¹

$$$$
>  <alteration>
A6U U56C C68G

>  <val>
< 1e-05 s⁻¹

$$$$
>  <alteration>
G29U U47G

>  <val>
0.000215 s⁻¹

$$$$
>  <alteration>
U47G C70U C71G

>  <val>
0.000118 s⁻¹

$$$$
>  <alteration>
C58A C71A

>  <val>
3.29e-05 s⁻¹

$$$$
>  <alteration>
G7A G37A G60U A64U

>  <val>
< 1e-05 s⁻¹

$$$$
>  <alteration>
A36G G41C A53U

>  <val>
< 1e-05 s⁻¹

$$$$
>  <alteration>
A6G G44U

>  <val>
< 1e-05 s⁻¹

$$$$
>  <alteration>
U49G U56C

>  <val>
7.28e-05 s⁻¹

$$$$
>  <alteration>
G62A A64U

>  <val>
< 1e-05 s⁻¹

$$$$
>  <alteration>
G43C C61U

>  <val>
< 1e-05 s⁻¹

$$$$
>  <alteration>
C10A C70G

>  <val>
0.000116 s⁻¹

$$$$
>  <alteration>
C16G U55C

>  <val>
0.000574 s⁻¹

$$$$
>  <alteration>
A12G A39G C50A

>  <val>
< 1e-05 s⁻¹

$$$$
>  <alteration>
G32A A53C C58U C71A

>  <val>
< 1e-05 s⁻¹

$$$$
>  <alteration>
A6G A36U C50U

>  <val>
< 1e-05 s⁻¹

$$$$
>  <alteration>
A14U G38A A53G

>  <val>
< 1e-05 s⁻¹

$$$$
>  <alteration>
A6G G63C C67A

>  <val>
< 1e-05 s⁻¹

$$$$
>  <alteration>
G13C A36G G63C

>  <val>
< 1e-05 s⁻¹

$$$$
>  <alteration>
G66U C70U

>  <val>
0.000507 s⁻¹

$$$$
>  <alteration>
U57G G59C

>  <val>
< 1e-05 s⁻¹

$$$$
>  <alteration>
C16U C50G G62A C67G

>  <val>
0.000337 s⁻¹

$$$$
>  <alteration>
G13C C34A G35U

>  <val>
< 1e-05 s⁻¹

$$$$
>  <alteration>
A12G A39U A42C

>  <val>
8.45e-05 s⁻¹

$$$$
>  <alteration>
C10U G37C G44U U65C

>  <val>
< 1e-05 s⁻¹

$$$$
>  <alteration>
U30C U47G

>  <val>
6.62e-05 s⁻¹

$$$$
>  <alteration>
G40A A52G

>  <val>
0.000102 s⁻¹

$$$$
